Reference source: PubChem BioAssay (NCI)

Assay: NCI Yeast Anticancer Drug Screen. Data for the rad50 strain (AID 155);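 note: 0% = growth of vehicle-only cultures of the same strain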
Conditions: S. cerevisiae rad50 strain growth inhibition; at 50.0 µM
This is part of a sample that, as a whole, favours compounds with a hit. Of some 79,000 tested, about 15% had one in any assay. Calls of active or inactive are those of the source. Cut-off read from the data, not from the text of the source: active = growth inhibition above about 70%; inactive = the rest.
Can you answer with just one of these options? 1 (active), -1 (inactive)

Consider the following illustrative entries.
compound	cat
CCN(CC)CCCC(C)Nc1c2ccc(Cl)cc2nc2c(Cl)cc(Cl)cc12 (stereo not given)	-1
O=[N+]([O-])c1ccc(N/N=C2\CCC3CC23)c([N+](=O)[O-])c1 (stereo not given)	-1
CC(SSc1ccc(C(C)(C)C)cc1)c1ccccc1 (stereo not given)	-1
Cc1cc(C)c(NC(=O)C(C)(C)C)c(C)c1	-1
CC(C)(C)C(=O)CC(=O)C(F)(F)C(F)(F)C(F)(F)F.CC(C)(C)C(=O)CC(=O)C(F)(F)C(F)(F)C(F)(F)F.CC(C)(C)C(=O)CC(=O)C(F)(F)C(F)(F)C(F)(F)F.[Eu]	-1
CCOC(=O)Oc1cc2c(ccn2C)c2c1c1ccccc1n2C(=O)OCC	-1
FC(F)(F)C(F)(F)C(F)(F)C(F)(F)C(F)(F)C(F)(F)C(F)(F)c1noc(C(F)(F)C(F)(F)C(F)(F)C(F)(F)C(F)(F)C(F)(F)C(F)(F)F)n1	-1
O=C1CCC(O)=C1O	-1
O=[N+]([O-])c1ccc(CCCCCc2ccccc2)cc1	-1
C/C(=N/NC(N)=O)C(=O)O	-1

Hi, do you know how CSCC1CC(c2ccc(Cl)cc2)=NO1 (stereo not given) came out in this test?
-1

And for `CCC(CC)C(=O)OCCOc1ccccc1` ?
-1

Please answer likewise for `c1ccc(-c2cc[n+]3c4c2ccc2c(-c5ccccc5)cc[n+](c24)CC3)cc1`
1

Again, but for CC(O)(c1cccc(OCc2ccccc2)c1)c1ccccn1 (stereo not given)
-1

One more compound: CC(=O)OC1[C@@H](OC(C)=O)[C@H](OC(C)=O)C2(CO2)[C@H](OC(C)=O)[C@H]1OC(C)=O (stereo not given in full)
-1

* * *

Assay: NCI Yeast Anticancer Drug Screen. Data for the rad50 strain (AID 155);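 note: 0% = growth of vehicle-only cultures of the same strain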
Conditions: S. cerevisiae rad50 strain growth inhibition; at 50.0 µM; active compounds read high
Compounds without any hit were thinned out: in the full panel of roughly 79,000, 15% have a hit. Calls of active or inactive are those of the source. Cut-off read from the data, not from the text of the source: active = growth inhibition above about 70%; inactive = the rest.
So I've got a bunch of compounds here, and I need their growth inhibition values.

Solved cases (3 shown):
compound	growth inhibition
CCN(CC)CCOc1ccc(/C=C(\C#N)c2ccc(OCCN(CC)CC)cc2)cc1	56.5% (inactive)
CC/C(=N\N=C(/CC)c1cccs1)c1cccs1	25.5% (inactive)
CCCCCCCC/C=C\CCCCCCCC(N)=O	-20.9% (inactive)

I need growth inhibition for every entry listed below, if you could help.
1. C=CCCc1cc(OC)ccc1C(=O)C(C)C
2. COC(=O)c1cc(C(=O)OC)c(CC(=O)C(=O)Nc2ccc(Cl)c(C(F)(F)F)c2)nc1CC(=O)C(=O)Nc1ccc(Cl)c(C(F)(F)F)c1
3. O=[N+]([O-])c1nccn1CCC[n+]1cccc2ccccc21
4. CC/C(=N\O)c1ccc2cc(Cl)c3ccccc3c2c1
5. N/N=C(\c1ccccc1)C(Nc1ccccc1)c1ccccc1 (stereo not drawn)

["4.3% (inactive)", "-25.2% (inactive)", "-38.6% (inactive)", "21.7% (inactive)", "11.2% (inactive)"]

* * *

Test: NCI Yeast Anticancer Drug Screen. Data for the sgs1 mgt1 strain (AID 161);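 note: 0% = growth of cultures given vehicle only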
Settings: S. cerevisiae sgs1 mgt1 strain, at 50.0 µM, active compounds read high
About 79,000 compounds went through this panel and 15% of them were active in at least one assay; those are over-represented in the sample as a whole.
reported-metric: growth inhibition (%)
Give bare numbers, in %.

See these solved cases before continuing.
compound	growth inhibition [%]
CC(=O)OC1[C@@H](OC(C)=O)[C@H](OC(C)=O)C2(CO2)[C@H](OC(C)=O)[C@H]1OC(C)=O (stereo not given in full)	-6.4
CC1(C)CCCOc2cccc(c2)OCCCC(C)(C)C1=O	-9.05
O=C(Nc1ccccc1SC(=O)OCc1ccccc1)OCc1ccccc1	11.6
Fc1ccc2nncc(SCc3ccc(Cl)cc3)c2c1	4

Here are 2 compounds. What values of growth inhibition were reported for them?
1. COc1ccc(C(=O)C(C(=O)C(=O)Nc2ccc(Cl)c(Cl)c2)c2ccc(OC)cc2)cc1 (stereo not given)
2. CCOC(=O)C(C(=O)OCC)(C(=O)C(F)(F)C(F)(F)C(F)(F)C(F)(F)C(=O)C(C(=O)OCC)(C(=O)OCC)c1ccccc1)c1ccccc1

1. -34.4
2. -3.7

Need growth inhibition for each of these compounds.
1. CCOC(=O)NC(Nc1ccc(Cl)cn1)(C(F)(F)F)C(F)(F)F
2. CCOC(=O)/C(C#N)=C/NCC1CC1
3. NC(=O)NNC(=O)NC12CC3CC(CC(C3)C1)C2
4. CCCCN(CCCC)S(=O)(=O)c1ccc(OCCOc2ccc(S(=O)(=O)N(CCCC)CCCC)cc2)cc1
5. CC(O)(c1cccc(OCc2ccccc2)c1)c1ccccn1 (stereo not given)
6. COC1/C=C\C=C(/C)C(=O)Nc2cc3nc4cccc(Br)c4oc-3c(c2=O)CC(C)CC(OC)C(O)C(C)/C=C(\C)C1OC(N)=O (stereo not given)
7. S=c1[nH][nH]c(=S)c2[nH]cnc12
8. OCCN(CCO)CCCNc1ccnc2cc(Cl)ccc12

1: -52.5; 2: 1.6; 3: -10.2; 4: 15.2; 5: 5.7; 6: 26.2; 7: -5.55; 8: -0.65

Entry under review: CC1=C2C(C)CC3OC(=O)C(C)C3C(O)C2CC1=O (stereo not given) . Reported growth inhibition?
1.2

* * *

Experiment: NCI Yeast Anticancer Drug Screen. Data for the mec2-1 strain (AID 157)
Details: S. cerevisiae mec2-1 strain, at 50.0 µM
About 79,000 compounds went through this panel and 15% of them were active in at least one assay; those are over-represented in the sample as a whole. Activity calls are given as the source filed them. Rule as the data show it: active = growth inhibition above about 70%; inactive = the rest.
Outcome field: choose from t for active, f for inactive

Some entries whose results are on file:
molecule	cat
CCC(=O)N1NC(=O)C(CC)(CC)C1=O	f
FC(F)(F)c1cccc(CSCc2c(CSCc3cccc(C(F)(F)F)c3)c(CSCc3cccc(C(F)(F)F)c3)c(CSCc3cccc(C(F)(F)F)c3)c(CSCc3cccc(C(F)(F)F)c3)c2CSCc2cccc(C(F)(F)F)c2)c1	f
O=S(=O)(Oc1ccc(OS(=O)(=O)c2ccccc2)cc1)c1ccccc1	f
Cc1cc2n(n1)C(=O)CC(=O)C2	f
O=c1[nH]c2ccccc2nc1/C=C/NC(=S)Nc1ccccc1	f

Please state the recorded outcome for this molecule: `CC(=O)c1cccc(NC(=O)c2c(Br)c(Br)c(Br)c(Br)c2C(=O)O)c1`
f

* * *

Please go through the items and note down their growth inhibition.
Test: NCI Yeast Anticancer Drug Screen. Data for the cln2 rad14 strain (AID 165);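 note: 0% = growth equal to vehicle treated cultures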
Settings: S. cerevisiae cln2 rad14 strain, at 50.0 µM, active compounds read high
Compounds without any hit were thinned out: in the full panel of roughly 79,000, 15% have a hit.
Give bare numbers, in %.

substance-smiles	growth inhibition, %
Clc1ccccc1CSc1cnnc(Cl)c1SCc1ccccc1Cl	39.6
CCOc1ccc(S(=O)(=O)OCC)cc1	1.35

Name the reported growth inhibition value associated with the compound `CCCCCCCCCCCCCCCCCCn1cnc2ncnc(Cl)c21`
55.3

* * *

Record form. Attribute: growth inhibition. Fill in for each entry.
Test: NCI Yeast Anticancer Drug Screen. Data for the rad50 strain (AID 155);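 note: 0% = growth of vehicle-only cultures of the same strain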
Conditions: S. cerevisiae rad50 strain growth inhibition; at 50.0 µM; active compounds read high
About 79,000 compounds went through this panel and 15% of them were active in at least one assay; those are over-represented in the sample as a whole.
Answers are plain numbers, in %.

Use the examples below as a reference point.
molecule	growth inhibition / %
CCCC(=O)OCCC(C)C	30.9
C[N+](C)(C)c1ccc2c(c1)CCC/C2=N\N	12.8

Each of the following entries comes with a recorded value; kindly state growth inhibition for each.
1. CSc1nc[nH]c1C(N)=S
2. COc1cc(C(=O)O)c([N+](=O)[O-])c(OC)c1OC
3. O=C(NCCO)[C@H](O)[C@@H](O)[C@H](O)[C@H](O)CO
4. c1ccc2c(c1)NCCOCCNc1ccccc1OCCNCCO2
5. COC1OC(C(C)O)C(O)C(O)C1O (stereo not given)
6. CCCC(C)C(SC(CC)C(N)=O)C(=O)O (stereo not given)
7. CCOC(=O)/C(C#N)=C/c1c[nH]c2ccccc12
8. CNc1nc(Cl)cc2nc(Cl)cn12

1. -13.1
2. -12.3
3. 7.1
4. -1.5
5. 23.6
6. -3.5
7. 19.6
8. -2.15

* * *

Please provide measured growth inhibition for the entries that follow.
Assay: NCI Yeast Anticancer Drug Screen. Data for the mlh1 rad18 strain (AID 175)
Settings: S. cerevisiae mlh1 rad18 strain growth inhibition; at 50.0 µM; active compounds read high
Compounds without any hit were thinned out: in the full panel of roughly 79,000, 15% have a hit.
Give bare numbers, in %.

compound	endpoint-unit	observed-value
O=C1OC(c2cccc(C(F)(F)F)c2)c2ccc3ccccc3c21 (stereo not drawn)	%	22.8

State recorded growth inhibition for all listed compounds.
1. COC(=O)c1nc(NN)[nH]c(=O)c1C
2. Cc1ccc(Nc2nc(C)c(C(=O)C/C(=N/NC(N)=S)C(=O)Nc3cc(Cl)cc(Cl)c3)s2)cc1

1: -15.1; 2: -27.8

For each listed entry, give its growth inhibition.
1. O=S(=O)(O)C(CO)c1ccccc1 (stereo not drawn) (tested in a mixture with another compound)
2. COc1ccc2cc1Oc1cc3c(cc1OC)CC[N+](C)(C)C3Cc1ccc(cc1)Oc1c(OC)c(OC)cc3c1C(C2)[N+](C)(C)CC3 (stereo not drawn)
3. CC(=O)OCC1(C)NC(=O)c2ccccc2O1 (stereo not drawn)
4. CC(C)(C)NC(=O)NCc1ccc(Cl)c(Cl)c1
5. [O-][N+](O)=C1c2ccccc2-c2ccccc21

1. 0.9
2. -19.3
3. 22.4
4. 21.6
5. 11.1
